# Tested on: K4 kissing-loop RNA reporter;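 note: bound reporter read as fluorescence of individual clusters on recovered sequencing chips by microscopy, with normalized cluster intensities fitted with a binding model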
# test.description: apparent KD of K4 kissing-loop reporter; higher = weaker reporter binding
# experimental.setup: Eterna round: R107; input ligand: none
experimental.endpoint: apparent KD of K4 kissing-loop reporter

Problem: // returns reported apparent KD of K4 kissing-loop reporter for input CACUCGGUAUCAGAUACCAGACUAACGAUACCGAGUGUAUCGGGUAGUGAUGUUACCAUAGUCCCUUGGCAGCUGAUAUUCCCUA [Theo B SS t9a]
Solution: 258 nM

Problem: // returns reported apparent KD of K4 kissing-loop reporter for input UGUGUUUUUUUGAUGUUUGUUGUAAAAUGGCAGGAUAUCGUAGAGGCGAGAAGGGCUUUUAUGCGUUAUGAGUGAUGUUUGUAGG [qqdqmullin]
Solution: 315 nM

Problem: // returns reported apparent KD of K4 kissing-loop reporter for input AAACAGCACUGGGAGUGAUGUUCUCAGUGACGAGGACCGGUACGGCCGCCACUCGCGAGAGAACUAGUCUAGACUUGACUGCAUA [Excl Tryptophan A V15]
Solution: 145 nM

Problem: // returns reported apparent KD of K4 kissing-loop reporter for input AACGCUCAAUAGAGAGUGAUGUUCUCUAUACGAGGACCGGUACGGCCGCCACUCGAAUGUAUAGCGAAACGCUAUACACAGUGGU [Tryp A SS t2]
Solution: 152 nM

Problem: // returns reported apparent KD of K4 kissing-loop reporter for input UUCUAAAUGUCUGAUACCAGAGAAAAUAUAUGUAGUGAUGUUAUAUACAAAUUUAAUAAGCUCCCUUGGCAGCAGUAUGAAUUUU [AstrosExc-TheB#13]
Solution: 949 nM

Problem: // returns reported apparent KD of K4 kissing-loop reporter for input GGAUAUGUAACAGAUACCAGCCGACGACAGUCACUGUGUCAUGUAGUGAUGUUACAAUCUGGCCCUUGGCAGCUGUCUCUGGUUU [theeternabot_exclusion_KL_Theo_B_27]
Solution: 278 nM

Problem: // returns reported apparent KD of K4 kissing-loop reporter for input UCCUAGGCUCGAAAGAGCCUAGGAUUGACUCAGGAUAUCCGGAAACGGAGAAGGGAGUCACUAGUGAUGUUAGGGAUUCCCUAUU
Solution: 100 nM

Problem: // returns reported apparent KD of K4 kissing-loop reporter for input UCGCACCUGUGGGCGAGGCCUAUAAUUGUCAAGGAUAUAGAUCAUUCUAGAAGGUGACACUUCGCGAGUGAUGUUCGGGAAAUGC [theeternabot_sameState_KL_FMN_A_8]
Solution: 273 nM

Problem: // returns reported apparent KD of K4 kissing-loop reporter for input CCGCUGUACUGCAAUAAGUGAUGUUUAUUGCAGGAUAUCUGGAAACAGAGAAGGGCAUGUACUCGACUUAGCCACUACAGCGGUU
Solution: 61.1 nM

Problem: // returns reported apparent KD of K4 kissing-loop reporter for input GGCGGCCGCGCGAAAGCGCGGCCGGCCGAUACCAGCGCGACGGCGCGCCCUUGGCAGCGGCGCCGAGUGAUGUUCGGCCUGCCGU [#2 Same State - Theophylline A Attempt #13 (HarryS)]
Solution: 117 nM

Problem: // returns reported apparent KD of K4 kissing-loop reporter for input GCCUAGGCUCGAAAGAGCCUAGGCUGGGCUCAGGAUAUCCGGAAACGGAGAAGGGAGGGACUAGUGAUGUUAGGGAUUCCCUAUG
Solution: 290 nM

Problem: // returns reported apparent KD of K4 kissing-loop reporter for input AAGGCCGCGCGGUGAUGUUUCAUCGCCGCCCGAGGACCGGUACGGCCGCCACUCGGAUAUAUCGCAGUGAUGUUGCUCUAUAUCA [Exclusion - Tryptophan A]
Solution: 155 nM

----------
# Test system: MS2 coat protein
# test.description: apparent KD of MS2 coat protein; designed switch direction (-1 OFF switch, 1 ON switch): -1; higher = weaker reporter binding
# experimental.setup: Eterna round: R95; input ligand: FMN 200 uM
// map apparent KD of MS2 coat protein onto a label; ranges class 1: < 30 nM; class 2: ≥ 30 nM and < 70 nM; class 3: ≥ 70 nM

Problem: Category lookup for the sequence GUAAUUAUAUAGGAUAUCGAAAGUAUAAUUUAACGAGAAGGAUGAACAUGAGGAUCACCCAUGUGGUAUCAUGG [JL-ex6-3.08] (puzzle: Exclusion 6)
Solution: class 2

Problem: Category lookup for the sequence ACAAGCUCUUUGCAACUUAGUUUUGUUGCUUCGUAGGUAACAUGAGGAUCACCCAUGUAAGACUGAUGUCGUCUUAU [JR_SV3TOV2_Sub086] (puzzle: Sensor v3, turn-off variant 2)
Solution: class 2

Problem: Category lookup for the sequence CUGGUCCGAGGAUAUAUUAUGUGAUACAUGAGGAUCACCCAUGUUAUAUGAUGGAUGUUAAUAGAAGGCGGACUAG [JL-ex5-3.20] (puzzle: Exclusion 5)
Solution: class 3

Problem: Category lookup for the sequence AGUACUAACACGAGAGUGUUAGUACUAUAAGCUUGUGUUACAUGAGGAUCACCCAUGUCCUCAUAAGCUCGUCUUAG [Mat - Sensor v3 - Turn-off var 2 - D67] (puzzle: Sensor v3, turn-off variant 2)
Solution: class 2

Problem: Category lookup for the sequence AGUUGUUGUUUCCGUUCUUACAUGAGGAUCACCCAUGUUUCUUGUCGUGCUCGCGUUGCUCGUCUGGCUGCCUGUUG [salish99_TOv1_r3_069] (puzzle: Sensor v3, turn-off variant 1)
Solution: class 2

Problem: Category lookup for the sequence GGUACUAACACGAAAGUGUUAGUACAAUAAGCUAGUGGAACAUGAGGAUCACCCAUGUCCUCAUUAGCUCGUCUUAU [Mat - Sensor v3 - Turn-off var 2 - D36] (puzzle: Sensor v3, turn-off variant 2)
Solution: class 1

Problem: Category lookup for the sequence GAAAAGUGAGGAUAUGGUAAAAGAAAAAGAAAAAGAAAACUCCAGAAGGCACAUGAGGAUCACCCAUGUAAAAG [salish99_ex4_r3_005] (puzzle: Exclusion 4)
Solution: class 1

Problem: Category lookup for the sequence UUUAAUUUUUUUUUUUUACAAGCUUUUUGCUCGUCUUAUACAUGAGGAUCACCCAUGUAAGUGGGAGAUAAAUUAUC [JMF 21] (puzzle: Sensor v3, turn-off variant 2)
Solution: class 3

Problem: Category lookup for the sequence GACGCUAAAGGAUAUACAUGAGGAUCACCCAUGUUGAGGAAGGUUAGAUGAGGAGUAAGUAGAAGGUUAGACGA [JR_Exclu3_Sub091] (puzzle: Exclusion 3)
Solution: class 2

Problem: Category lookup for the sequence ACAAGCUUUUUGUUCGUCUUAUACACUCCUAAUAAGACAACAUGAGGAUCACCCAUGUAAGAAAUAAGAACUCAUGU [Sesor Array 4 - Jieux - Sensor v3, turn-off variant 2] (puzzle: Sensor v3, turn-off variant 2)
Solution: class 3

Problem: Category lookup for the sequence GCGAAAACAAACAGGUGAAACAUGAGGAUCACCCAUGUCCUCAUUUGCUCGUCUUAUAAGCUAUGCGAAAGCAUAGC [Mat - Sensor v3 - turn-off var 1 - Eli Mod - D55] (puzzle: Sensor v3, turn-off variant 1)
Solution: class 3

Problem: Category lookup for the sequence AUUUUAACAUAGGAUAUCGAAUUUAUUAUUUAACGAGAAGGAUGAACAUGAGGAUCACCCAUGUGGUAUCAUGA [Mat - Exclusion 6 - JL Mod - D21] (puzzle: Exclusion 6)
Solution: class 3

Problem: Category lookup for the sequence ACAAGCUUAUUGCUCGGGUACAUGAGGAUCACCCAUGUUAGUGAUUAUAGAGAAUGUGUUGACGUGCGCUGCAGGUU [JR_SV3TOV1_Sub079] (puzzle: Sensor v3, turn-off variant 1)
Solution: class 3

Problem: Category lookup for the sequence AGUUGUUGUUUCCGUUCUUACAUGAGGAUCACCCAUGUUUCUUGUCGUGCUCGCGUUGCUCGUCUGACUACCUGUUG [salish99_TOv1_r3_067] (puzzle: Sensor v3, turn-off variant 1)
Solution: class 2

Problem: Category lookup for the sequence AAGAAACAUGAGGAUCACCCAUGUGAGGAUAUGACAAAGAAAAGAAAAGAAAGAAGAGUCAGAAGGCACAAAGG [salish99-ex1_r3_038] (puzzle: Exclusion 1)
Solution: class 3

Problem: Category lookup for the sequence AAUAAACAUGAGGAUCACCCAUGUGAGGAUAUACAAAUAAAUAAAUAAAUAAAUAAUAGUAGAAGGCACAAUAA [Excls1-II] (puzzle: Exclusion 1)
Solution: class 2

Problem: Category lookup for the sequence ACUAGCUUUUUGCAUAGUAGGUUUGGUGCUUCGUAUGCUACAUGAGGAUCACCCAUGUAUUACUGAUUUCGUCGUUU [JR_SV3TOV2_Sub093] (puzzle: Sensor v3, turn-off variant 2)
Solution: class 1

Problem: Category lookup for the sequence CAUGAUCUUCGGAUCAUGUACAUGAGGAUCACCCAUGUUACGAGCAGAUUUUCAUACAAGCUUUUUGCUCGUCUUAU [Sensor v3 - Turn-off variant 1 - 31] (puzzle: Sensor v3, turn-off variant 1)
Solution: class 1

Problem: Category lookup for the sequence CUGGUCCGAGGAUAUAUUAAGUGAUACAUGAGGAUCACCCAUGUUAUUUAAUGGAUGUUAAUAGAAGGCGGACUAG [JL-ex5-3.19] (puzzle: Exclusion 5)
Solution: class 2
